# System: Streptococcus pneumoniae
# Measurement Description: Antibacterial activity against Streptococcus pneumoniae assessed as inhibition of bacterial growth incubated for 18 to 20 hrs by microbroth dilution method
# Assay type: functional
# Condition: time 18-20 hrs
Value Type: MIC (µg/mL)
Your answer is read as µg/mL, so omit the unit and give the number.

>>> obs_value("Cc1ccc(S(=O)(=O)NC(=S)Nc2nncs2)cc1")
12.5

Exercise: // fetch Streptococcus pneumoniae MIC for Cc1ccc(S(=O)(=O)NC(=S)Nc2nnc(C(C)C)s2)cc1
Solution: 3.12

Exercise: // fetch Streptococcus pneumoniae MIC for CCCCc1nnc(NC(=S)NS(=O)(=O)c2ccc(C)cc2)s1
Solution: 400

Exercise: // fetch Streptococcus pneumoniae MIC for CN[C@H](CC(C)C)C(=O)N[C@H]1C(=O)N[C@@H](CC(N)=O)C(=O)N[C@H]2C(=O)N[C@H]3C(=O)N[C@H](C(=O)N[C@H](C(=O)O)c4cc(O)cc(O)c4-c4cc3ccc4O)[C@H](O)c3ccc(c(Cl)c3)Oc3cc2cc(c3O[C@@H]2O[C@H](CO)[C@@H](O)[C@H](O)[C@H]2O[C@H]2C[C@](C)(N)[C@H](O)[C@H](C)O2)Oc2ccc(cc2Cl)[C@H]1O
Solution: 1.56

###

# Target Entity: DNA gyrase subunit B (Staphylococcus aureus, UniProt P0A0K8)
# Sequence (P0A0K8 whole entry): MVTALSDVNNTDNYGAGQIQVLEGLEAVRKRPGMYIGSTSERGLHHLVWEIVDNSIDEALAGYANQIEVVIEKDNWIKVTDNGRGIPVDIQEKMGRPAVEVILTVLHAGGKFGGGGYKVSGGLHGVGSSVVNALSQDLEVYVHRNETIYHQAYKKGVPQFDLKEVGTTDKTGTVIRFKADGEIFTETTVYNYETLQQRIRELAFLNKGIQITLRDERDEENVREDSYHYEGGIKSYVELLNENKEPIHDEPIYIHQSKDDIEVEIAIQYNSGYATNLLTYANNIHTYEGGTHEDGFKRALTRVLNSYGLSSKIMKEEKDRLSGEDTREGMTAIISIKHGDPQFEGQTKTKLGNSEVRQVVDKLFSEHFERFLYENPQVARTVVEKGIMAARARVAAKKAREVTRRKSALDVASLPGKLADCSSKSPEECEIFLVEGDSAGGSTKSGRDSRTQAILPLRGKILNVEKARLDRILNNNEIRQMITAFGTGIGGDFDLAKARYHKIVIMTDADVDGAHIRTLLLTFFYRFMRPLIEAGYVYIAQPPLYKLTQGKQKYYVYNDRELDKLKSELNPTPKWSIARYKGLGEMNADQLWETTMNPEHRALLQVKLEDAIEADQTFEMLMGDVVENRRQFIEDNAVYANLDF
# Measurement Description: Inhibition of Staphylococcus aureus DNA gyrase subunit B ATPase activity using relaxed pNO1 plasmid as substrate incubated for 30 mins by microplate reader analysis
Value Type: IC50

Reference set (3 entries):
>>> obs_value("CCc1nnc(NC(=S)NS(=O)(=O)c2ccc(C)cc2)s1")
"3170 nM"
>>> obs_value("Cc1ccc(S(=O)(=O)NC(=S)Nc2nnc(CCC(C)C)s2)cc1")
"1620 nM"
>>> obs_value("Cc1ccc(S(=O)(=O)NC(=S)Nc2nncs2)cc1")
"1560 nM"

Now for the molecule whose IC50 we want.
Exercise: GET /values?readout=IC50&item= CCCCCc1nnc(NC(=S)NS(=O)(=O)c2ccc(C)cc2)s1
Solution: 1220 nM

###

# Target Entity: Dihydrofolate reductase (Staphylococcus aureus)
# Sequence (P0A017 whole entry): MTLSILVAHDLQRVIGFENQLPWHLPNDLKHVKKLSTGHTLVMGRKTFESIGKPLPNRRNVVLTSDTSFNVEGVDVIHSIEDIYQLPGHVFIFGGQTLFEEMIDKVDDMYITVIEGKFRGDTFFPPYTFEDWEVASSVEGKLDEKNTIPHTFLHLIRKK
Value Type: IC50 (nM)
Your answer is read as nM, so omit the unit and give the number.

Exercise: GET /values?readout=IC50&item= CCCCCc1nnc(NC(=S)NS(=O)(=O)c2ccc(C)cc2)s1
Solution: 230

###

# Tested on: Aspergillus niger
# Measurement Description: Antifungal activity against Aspergillus niger assessed as inhibition of fungal growth incubated for 72 hrs by agar dilution method
# Assay type: functional
Kindly apply the following: condition met if MIC is less than 10 µg/mL, condition not met in every other case.

>>> discrete_label("OC(Cn1cncn1)(Cn1cncn1)c1ccc(F)cc1F")
"condition met"
>>> discrete_label("CCCCCc1nnc(NC(=S)NS(=O)(=O)c2ccc(C)cc2)s1")
"condition met"
>>> discrete_label("CCc1nnc(NC(=S)NS(=O)(=O)c2ccc(C)cc2)s1")
"condition not met"
>>> discrete_label("CCCCc1nnc(NC(=S)NS(=O)(=O)c2ccc(C)cc2)s1")
"condition not met"

Exercise: Does the reported MIC of Cc1ccc(S(=O)(=O)NC(=S)Nc2nnc(C)s2)cc1 stay below 10 µg/mL?
Solution: condition not met

Exercise: Does the reported MIC of CCCc1nnc(NC(=S)NS(=O)(=O)c2ccc(C)cc2)s1 stay below 10 µg/mL?
Solution: condition not met
